System: OVCAR-8 ovarian
protocol notes: NCI tumour cell line growth inhibition, 48 h
The compounds listed here are annotated with their GI50.

Below: 5 compounds and their reported GI50.
{"compound": "C=C1C[C@@H](O)[C@@H](Br)C(C)(C)[C@]12CCC(C)(Br)C(Cl)C2 (some centres undefined)", "GI50": "21.7 µM"}
{"compound": "COc1ccc(N=N/C(=N\\NC(=O)c2cc(Br)ccc2O)c2ccc(N(CCC#N)CCC#N)cc2OC)cc1", "GI50": "47.5 µg/mL"}
{"compound": "CC(=O)NC(CS)C(=O)O (centres undefined)", "GI50": "> 100 µM"}
{"compound": "O=C(Nc1ccc(Oc2ccc(NC(=O)Nc3ccccc3Cl)cc2)cc1)Nc1ccccc1Cl", "GI50": "6.83 µM"}
{"compound": "CCC1=C[C@@H]2CN(C1)Cc1c([nH]c3ccccc13)[C@@](C(=O)OC)(c1cc3c(cc1OC)N(C)[C@H]1[C@@](O)(C(=O)OC)[C@H](OC(C)=O)[C@]4(CC)C=CCN5CC[C@]31[C@@H]54)C2", "GI50": "< 0.0213 µM"}

Specify reported GI50 for the compound shown: C[C@@H]1CC[C@H]2[C@@H](C)C(OC/C=C/COC3O[C@@H]4O[C@@]5(C)CC[C@H]6[C@H](C)CC[C@@H]([C@H]3C)[C@@]46OO5)O[C@@H]3O[C@@]4(C)CC[C@@H]1[C@]32OO4 (some centres undefined)
< 0.01 µM

Specify reported GI50 for the compound shown: O=C(/C=C/c1ccco1)Nc1ncc(Cc2cccc(C(F)(F)F)c2)s1
0.138 µM

Specify reported GI50 for the compound shown: CCOC(=O)Nc1ccc2nc(N3CCCCCC3)sc2c1
4.51 µM

Specify reported GI50 for the compound shown: CCSc1nc(NC(C)c2ccccc2)c2cnn(CO)c2n1 (centres undefined)
99.3 µM

* * *

System: SF-295 CNS
protocol notes: NCI tumour cell line growth inhibition, 48 h
measured property: GI50

{"molecule": "CC(C)(C)[Si](C)(C)OC1[C@@H](O[Si](C)(C)C(C)(C)C)[C@@H](CNC(=O)NC(=O)NC(=O)CCl)O[C@H]1n1cnc2c(NC(=O)Nc3ccccc3)ncnc21 (stereo partly drawn)", "measured property": "GI50", "result": "4.91 µM"}

Switching to the query record.
Name the value of GI50 reported for CC(=O)NC(CS)C(=O)O (stereo not drawn) when tested on SF-295 CNS.
> 100 µM

* * *

What follows is a collection of GI50 values obtained with NCI-H460 lung.

Name the value of GI50 reported for CC(=O)OC1CC2C(C)(C)CCC[C@]2(C)C2=C1C(O)=C(C(C)C)C(=O)C2=O (stereo not given in full) when tested on NCI-H460 lung.
354 nM

Name the value of GI50 reported for Fc1ccc(Nc2ncc(-c3cc(F)c(Cl)cc3Cl)s2)cc1Cl when tested on NCI-H460 lung.
2980 nM

Name the value of GI50 reported for COC1=CC(c2ccc[nH]2)=N/C1=C\c1[nH]c(C)c(C(=O)Oc2ccccc2)c1C when tested on NCI-H460 lung.
77 nM

Name the value of GI50 reported for COc1cc(-c2cc(-c3cccs3)c(C#N)c(N3CCOCC3)n2)cc(OC)c1OC when tested on NCI-H460 lung.
3060 nM

Name the value of GI50 reported for COc1ccc(/C(=C/c2ccc3ccccc3c2)c2nn[nH]n2)cc1OC when tested on NCI-H460 lung.
2810 nM

* * *

System: CAKI-1 renal
protocol notes: NCI tumour cell line growth inhibition, 48 h
measured property: TGI

Below: 6 compounds and their reported TGI.
{"compound": "CNCCCn1c2c(c3ccc(Cl)cc3c1=O)C(=O)c1cc(OC)cnc1-2", "TGI": "1.78 µM"}
{"compound": "COc1cc(-c2cc(-c3cccs3)c(C#N)c(N3CCOCC3)n2)cc(OC)c1OC", "TGI": "> 100 µM"}
{"compound": "CCc1cccc(C)c1N1C(=O)C(=O)C(c2nc3ccccc3o2)/C(=N/NC(=S)NN)C1=O (configuration not stated)", "TGI": "> 100 µM"}
{"compound": "CC1OC(OC2C(OC(=O)[C@]34CCC(C)(C)CC3C3=CCC5[C@@]6(C)C[C@H](O)[C@H](OC7OC(COC8OC(CO)C(O)C(O)C8O)C(O)C(O)C7O)[C@@](C)(C(=O)O)C6CC[C@@]5(C)C3(C)CC4)OCC(O)C2O)C(O)C(O)C1OC1OCC(O)C(O)C1O (some centres not stated)", "TGI": "> 100 µM"}
{"compound": "CSCCC(NC(=O)Cc1ccc(C(=O)c2ccccc2)cc1)C(=O)N1CCN(CCCCN2c3ccccc3Sc3cc(N=[N+]=[N-])ccc32)CC1 (configuration not stated)", "TGI": "> 100 µM"}
{"compound": "O=S1(=O)OCCOS(=O)(=O)C1(Cl)Cl", "TGI": "> 100 µM"}

Switching to the query record.
Name the value of TGI reported for C/C=C(\C)c1cc(=O)c2c(C)cc3c(c2o1)C(OC)(OC(C)=O)c1c(O)c(C2CC(C)(N(C)C)C(OC(C)=O)C(C)O2)cc(C2CC(N(C)C)C(OC(C)=O)C(C)O2)c1C3=O (configuration not stated) when tested on CAKI-1 renal.
9.39 µM

* * *

Tested on: NCI-H522 lung
protocol notes: NCI tumour cell line growth inhibition, 48 h; in the data active means GI50 below about 0.43 µM; inactive means the rest
Respond with a class label; see active, inactive

Example results:
{"compound": "NS(=O)(=O)c1ccc(N=Nc2c(O)[nH]c3ccc(C(=O)NCCc4cnc[nH]4)cc23)cc1", "measurement target": "NCI-H522 lung", "class": "inactive"}
{"compound": "C[C@]12CCCN1CC1=NNC(=O)c3cc(F)cc4[nH]c2c1c34", "measurement target": "NCI-H522 lung", "class": "inactive"}
{"compound": "C=C1C(=O)O[C@@H]2C[C@@H]1CC[C@]1(C)O[C@H]1CC/C(C)=C/CC[C@@]2(C)O", "measurement target": "NCI-H522 lung", "class": "inactive"}
{"compound": "CCC[CH2][Sn]1([CH2]CCC)[O]C(=O)CN=C(C)c2ccccc2[O]1", "measurement target": "NCI-H522 lung", "class": "active"}
{"compound": "[N-]=[N+]=NCCCn1c2c(c3ccc([N+](=O)[O-])cc3c1=O)C(=O)c1cc(I)ccc1-2", "measurement target": "NCI-H522 lung", "class": "inactive"}
{"compound": "Fc1ccc(Nc2ncc(-c3cc(F)c(Cl)cc3Cl)s2)cc1Cl", "measurement target": "NCI-H522 lung", "class": "inactive"}

Can you look up the reported call for Cc1cc2c(C(=O)NCC#N)cccc2n1-c1nc2c(c(NCc3ccccc3)n1)CCCC2 for me?
active

Can you look up the reported call for COc1ccc(C2CC(c3ccccc3)=NN2C(=O)c2cc(OC)c(OC)c(OC)c2)cc1O (stereo not drawn) for me?
active

Can you look up the reported call for O=C(Nc1ccc(Oc2ccc(NC(=O)Nc3ccccc3Cl)cc2)cc1)Nc1ccccc1Cl for me?
inactive

Can you look up the reported call for Clc1ccc(C2CC(c3cccc(Nc4ccncc4)c3)=NN2c2ccccc2)cc1 (stereo not drawn) for me?
inactive

Can you look up the reported call for COc1ccc2nc3cc(Cl)ccc3c(NCCNCC(O)CO)c2c1 (stereo not drawn) for me?
inactive

Can you look up the reported call for COc1cc(N2CCN(C(C)C)CC2)ccc1Nc1nc(Nc2ccc(F)cc2C(=O)NCC(O)CO)c2cc[nH]c2n1 (stereo not drawn) for me?
inactive

Can you look up the reported call for CC(=O)OC1CC2C(C)(C)CCC[C@]2(C)C2=C1C(O)=C(C(C)C)C(=O)C2=O (stereo partly drawn) for me?
inactive

Can you look up the reported call for Clc1ccc(-c2nc3c(-c4ccccc4)nc(-c4ccccc4)cn3c2-c2ccc(Cl)cc2)cc1 for me?
inactive

Can you look up the reported call for CC(C)(C)[Si](C)(C)OC1[C@@H](O[Si](C)(C)C(C)(C)C)[C@@H](CNC(=O)NC(=O)NC(=O)CCl)O[C@H]1n1cnc2c(NC(=O)Nc3ccccc3)ncnc21 (stereo partly drawn) for me?
active

Can you look up the reported call for O=C(CN1CCN(CCN2C(=O)c3cccc4cccc(c34)C2=O)CC1)Nc1ccc2ncsc2c1 for me?
inactive

Can you look up the reported call for CCC1=C[C@@H]2CN(C1)Cc1c([nH]c3ccccc13)[C@@](C(=O)OC)(c1cc3c(cc1OC)N(C)[C@H]1[C@@](O)(C(=O)OC)[C@H](OC(C)=O)[C@]4(CC)C=CCN5CC[C@]31[C@@H]54)C2 for me?
active

Can you look up the reported call for O=c1c2cccc(F)c2sc2c(NCCCNCCO)nc3ccccc3c12 for me?
inactive

* * *

Tested on: SW-620 colon
protocol notes: NCI tumour cell line growth inhibition, 48 h
measured property: TGI

Below: 2 compounds and their reported TGI.
{"compound": "CC1(C)CCCC2CC2CCC(C)(C)C1=O (stereo not drawn)", "result": "> 100 µM"}
{"compound": "COc1ccc(C(OC(=O)[C@H](O[Si](C)(C)C(C)(C)C)[C@@H](NC(=O)c2ccccc2)c2ccccc2)c2ccc(OC)cc2)cc1", "result": "> 100 µM"}

Specify reported TGI for the compound shown: NS(=O)(=O)c1ccc(N=Nc2c(O)[nH]c3ccc(C(=O)NCCc4cnc[nH]4)cc23)cc1
> 25 µM

Specify reported TGI for the compound shown: Cc1c2oc3c(C)cnc(C(=O)NC4C(=O)NC(C(C)C)C(=O)N5CCCC5C(=O)N(C)CC(=O)N(C)C(C(C)C)C(=O)OC4C)c3nc-2c(C(=O)NC2C(=O)NC(C(C)C)C(=O)N3CCCC3C(=O)N(C)CC(=O)N(C)C(C(C)C)C(=O)OC2C)c(N)c1=O (stereo not drawn)
> 53.3 µM

Specify reported TGI for the compound shown: Brc1c2c(c(Br)c3nsnc13)N=S=N2
> 68.5 µM

Specify reported TGI for the compound shown: CCOC(=O)C1=C(C)NC(C)=C(C(=O)OCCNC(=O)c2ccc(N=[N+]=[N-])cc2)C1c1ccccc1C(F)(F)F (stereo not drawn)
21.5 µM

Specify reported TGI for the compound shown: CN1C(=S)CSc2ccccc21
> 100 µM

Specify reported TGI for the compound shown: O=C1c2cccc([N+](=O)[O-])c2C(=O)c2nccnc21
3.92 µM
